reportedConditions: 298.15 K; 101.33 kPa; Liquid; Vibrating tube method
Answer each item with its documented mass density.
One number for each entry, in kg/m3.

Reference set (3 entries):
>  <compound>
CCN(CC)CC [triethylamine]

>  <valueKind>
mass density

>  <unitAnnotation>
kg/m3

>  <measValue>
722.822

$$$$
>  <compound>
CCC(C)=O [butanone]

>  <valueKind>
mass density

>  <unitAnnotation>
kg/m3

>  <measValue>
800.077

$$$$
>  <compound>
CCCNCCC [dipropylamine]

>  <valueKind>
mass density

>  <unitAnnotation>
kg/m3

>  <measValue>
733.683

$$$$

Proceeding to the next compound to report its mass density.
Exam item: Field request: mass density | item: CCCCNCCCC [dibutylamine]
Marked response: 755.457
